Source: patent US12606557B2

- assay_summary: Plasma pharmacokinetics after a single intraperitoneal dose
- Format: in vivo, male CD1 mice
- experimental_context: male, CD1, mouse, plasma, intraperitoneal, 10 mg/kg, 10 mg/kg IP, 0.08 hr; read-out: Plasma Concentration, Mean
reported_endpoint: concentration at 0.08 hr
The number alone won't do; follow it with the unit.

State the recorded concentration at 0.08 hr for this entry: COc1ccc(Cn2ccc3ccc(C(=O)NS(C)(=O)=O)cc32)cc1 [UPHH-000171] 6750 ng/mL

====

- assay_summary: Blood pharmacokinetics after a single intraperitoneal dose
- Type: in vivo, male CD1 mice
- experimental_context: male, CD1, mouse, in vivo, 10.4 mg/kg, 10.4 mg/kg IP, 0.5 hr; read-out: Blood Concentration, Mean
reported_endpoint: concentration at 0.5 hr

State the recorded concentration at 0.5 hr for this entry: COc1ccc(Cn2ccc3ccc(C(=O)NO)cc32)cc1 681 ng/mL
